Source: paper PMC8946696

study target: G Protein-Coupled Estrogen Receptor (GPER, GPR30) (Homo sapiens)
Construct: plasma membranes of HEK293 cells stably transfected with GPER
Sequence (Q99527 whole entry): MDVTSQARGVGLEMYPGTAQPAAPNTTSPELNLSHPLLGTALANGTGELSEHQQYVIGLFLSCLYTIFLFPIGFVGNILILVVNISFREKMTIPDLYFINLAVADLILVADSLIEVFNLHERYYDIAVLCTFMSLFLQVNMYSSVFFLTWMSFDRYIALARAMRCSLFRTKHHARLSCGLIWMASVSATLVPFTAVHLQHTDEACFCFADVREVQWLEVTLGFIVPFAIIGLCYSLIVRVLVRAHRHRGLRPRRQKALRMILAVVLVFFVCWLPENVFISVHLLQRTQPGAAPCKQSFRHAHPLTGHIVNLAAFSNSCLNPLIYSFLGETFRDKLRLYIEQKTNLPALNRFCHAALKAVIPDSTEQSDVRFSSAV
run description: [3H]E2 competitive radioligand binding to plasma membranes of GPER-transfected HEK293 cells
pIC50: −log10 of the molar value.
metric name: pIC50

Need pIC50, item C[C@@H](CO)CCC[C@@H](C)[C@H]1CC[C@H]2[C@@H]3CC=C4C[C@@H](O)CC[C@]4(C)[C@H]3CC[C@]12C [27HC, 27-hydroxycholesterol]
6.10 to 6.30
